Data origin, for the record: patent US11085056B2

Tested on: C2C12 Cells
Experiment: Transfection of C2C12 cells with DOTMA/DOPE/peptide and eGFP plasmid, fluorescent plate reader
Assay type: cell-based, mouse
Details: DOTMA/DOPE 1:1 plus peptide with RRRRRRRRRRRR (SEQ ID NO: 109) at n terminus; EF1Alpha eGFP plasmid; 0.02 mL complex; 42 hours
Measured RF (Relative Fluorescence) of Transfection of C2C12 Cells values are reported for all entries that follow.
quantity measured: RF (Relative Fluorescence) of Transfection of C2C12 Cells

{"substance": "360 (GDLGRPGRKGRPGPP; Peptidic transfection agent) [compound 360]", "result": 2090}
{"substance": "327 (VAEIDGIEL; Peptidic transfection agent) [compound 327]", "result": 2043}
{"substance": "332 (TWYKIAFQRNRK; Peptidic transfection agent) [compound 332]", "result": 537}
{"substance": "237 (KNSFMALYLSKG; Peptidic transfection agent) [compound 237]", "result": 6491}
{"substance": "239 (KNSFMALYLSKGRLVFALG; Peptidic transfection agent) [compound 239]", "result": 10620}
{"substance": "218 (SPPRRARVT; Peptidic transfection agent) [compound 218]", "result": 3706}
